For each record, write down the corresponding Dmax.
target: NEK7 (Homo sapiens (Human), UniProt Q8TDX7+Q96SW2); assay: NEK7 NanoBiT degradation assay in Cal51 NEK7 NanoBiT cell line; type: cell-based; settings: CAL-51; Cal51 NEK7 NanoBiT cells, 24 hours; read-out: NEK7 NanoBiT Dmax
Sequence (Q8TDX7 whole entry): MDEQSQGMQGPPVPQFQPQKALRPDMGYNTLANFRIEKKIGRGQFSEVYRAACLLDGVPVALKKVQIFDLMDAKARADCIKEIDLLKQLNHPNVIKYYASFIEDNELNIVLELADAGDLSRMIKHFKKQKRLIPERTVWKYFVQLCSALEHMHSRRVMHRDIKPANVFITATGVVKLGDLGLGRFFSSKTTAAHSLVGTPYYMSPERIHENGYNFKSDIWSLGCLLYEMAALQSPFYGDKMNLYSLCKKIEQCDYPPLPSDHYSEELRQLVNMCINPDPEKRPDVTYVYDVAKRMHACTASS
Sequence (Q96SW2 whole entry): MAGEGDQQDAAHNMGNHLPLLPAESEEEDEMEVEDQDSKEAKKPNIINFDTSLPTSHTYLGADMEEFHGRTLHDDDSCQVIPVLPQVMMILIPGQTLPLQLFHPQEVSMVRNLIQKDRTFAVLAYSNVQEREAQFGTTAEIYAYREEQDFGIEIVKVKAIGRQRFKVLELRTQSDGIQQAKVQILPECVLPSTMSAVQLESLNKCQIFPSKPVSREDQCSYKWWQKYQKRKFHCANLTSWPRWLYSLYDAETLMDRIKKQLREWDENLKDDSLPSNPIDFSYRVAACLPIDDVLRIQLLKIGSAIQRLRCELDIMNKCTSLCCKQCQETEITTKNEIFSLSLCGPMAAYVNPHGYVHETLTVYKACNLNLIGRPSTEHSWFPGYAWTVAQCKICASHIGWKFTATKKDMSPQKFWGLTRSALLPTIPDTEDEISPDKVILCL
Sequence (Q16531 2-1140 partner): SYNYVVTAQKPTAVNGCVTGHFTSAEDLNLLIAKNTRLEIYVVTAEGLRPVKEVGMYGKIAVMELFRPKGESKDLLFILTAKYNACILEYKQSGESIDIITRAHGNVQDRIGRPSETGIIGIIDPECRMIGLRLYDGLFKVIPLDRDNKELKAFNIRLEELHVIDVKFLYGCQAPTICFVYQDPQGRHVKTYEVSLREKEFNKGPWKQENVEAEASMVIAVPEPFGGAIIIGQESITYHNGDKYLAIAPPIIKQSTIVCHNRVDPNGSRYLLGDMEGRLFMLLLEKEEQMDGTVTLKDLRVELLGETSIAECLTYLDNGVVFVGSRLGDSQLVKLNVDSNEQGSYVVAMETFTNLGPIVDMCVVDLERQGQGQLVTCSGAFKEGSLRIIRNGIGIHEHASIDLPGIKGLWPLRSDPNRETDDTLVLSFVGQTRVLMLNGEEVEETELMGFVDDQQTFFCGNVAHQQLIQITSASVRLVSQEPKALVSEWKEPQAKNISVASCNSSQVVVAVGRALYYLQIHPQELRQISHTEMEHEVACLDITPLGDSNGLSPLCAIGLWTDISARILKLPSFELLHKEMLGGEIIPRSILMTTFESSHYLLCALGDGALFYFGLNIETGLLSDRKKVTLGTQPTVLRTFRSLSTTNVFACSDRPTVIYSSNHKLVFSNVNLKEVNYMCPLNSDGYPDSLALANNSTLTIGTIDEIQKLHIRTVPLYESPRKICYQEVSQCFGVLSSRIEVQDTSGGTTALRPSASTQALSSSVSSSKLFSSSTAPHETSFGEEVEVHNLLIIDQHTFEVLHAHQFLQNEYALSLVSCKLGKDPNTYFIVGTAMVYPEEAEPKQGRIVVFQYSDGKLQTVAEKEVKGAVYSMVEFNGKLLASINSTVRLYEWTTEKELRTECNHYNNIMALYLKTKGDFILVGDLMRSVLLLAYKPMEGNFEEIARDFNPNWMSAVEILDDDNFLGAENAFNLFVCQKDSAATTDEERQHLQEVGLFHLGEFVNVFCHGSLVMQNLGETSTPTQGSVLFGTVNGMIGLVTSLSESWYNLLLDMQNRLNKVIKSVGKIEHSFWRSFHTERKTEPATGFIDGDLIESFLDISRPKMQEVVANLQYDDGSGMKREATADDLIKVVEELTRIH
Supply the numeric figure in %, leaving out any unit text.

Find Dmax (NEK7 (Homo sapiens (Human), UniProt Q8TDX7+Q96SW2)) for the entry CC(C)(C(=O)NCc1cc(Cl)c(C2CCC(=O)NC2=O)c(Cl)c1)c1cc2cccnc2cn1 (stereo not shown) [Compound 190]
90

Find Dmax (NEK7 (Homo sapiens (Human), UniProt Q8TDX7+Q96SW2)) for the entry CC(C)(C(=O)NCc1ccc(C2CCC(=O)NC2=O)c(Cl)c1)c1ccc(F)cc1 (stereo not shown) [Compound 30]
92

Find Dmax (NEK7 (Homo sapiens (Human), UniProt Q8TDX7+Q96SW2)) for the entry Cc1nnc(C(C)(C)C(=O)NCc2cc(Cl)c([C@@H]3CCC(=O)NC3=O)c(Cl)c2)o1 (single isomer, unassigned) [Compound 224]
77

Find Dmax (NEK7 (Homo sapiens (Human), UniProt Q8TDX7+Q96SW2)) for the entry CC(C)(C(=O)NCc1cc(Cl)c([C@]2(F)CCC(=O)NC2=O)c(Cl)c1)c1ccccc1 (single isomer, unassigned) [Compound 273]
70

Find Dmax (NEK7 (Homo sapiens (Human), UniProt Q8TDX7+Q96SW2)) for the entry CC(C)(C(=O)NCc1cc(Cl)c(C2CCC(=O)NC2=O)c(Cl)c1)c1ccc2nonc2c1 (stereo not shown) [Compound 81]
98

Find Dmax (NEK7 (Homo sapiens (Human), UniProt Q8TDX7+Q96SW2)) for the entry CC(C)(C(=O)NCc1cc(F)c(C2CCC(=O)NC2=O)c(Cl)c1)c1cc(F)ccn1 (stereo not shown) [Compound 260]
47

Find Dmax (NEK7 (Homo sapiens (Human), UniProt Q8TDX7+Q96SW2)) for the entry Cc1cc(CNC(=O)C(C)(C)c2ccncc2)cc(Cl)c1C1CCC(=O)NC1=O (stereo not shown) [Compound 107]
82

Find Dmax (NEK7 (Homo sapiens (Human), UniProt Q8TDX7+Q96SW2)) for the entry Cc1cnc(C(C)(C)C(=O)NCc2cc(Cl)c(C3CCC(=O)NC3=O)c(Cl)c2)cn1 (stereo not shown) [Compound 162]
86

Find Dmax (NEK7 (Homo sapiens (Human), UniProt Q8TDX7+Q96SW2)) for the entry CC(C)(C(=O)NCc1cc(F)c(C2CCC(=O)NC2=O)c(Cl)c1)c1ccc(OC(F)F)nc1 (stereo not shown) [Compound 267]
94

Find Dmax (NEK7 (Homo sapiens (Human), UniProt Q8TDX7+Q96SW2)) for the entry CC(C)(C(=O)NCc1cc(Cl)c(C2CCC(=O)NC2=O)c(Cl)c1)c1cc2ocnc2cn1 (stereo not shown) [Compound 146]
91

Find Dmax (NEK7 (Homo sapiens (Human), UniProt Q8TDX7+Q96SW2)) for the entry CC(C)(C(=O)NCc1cc(Cl)c(C2CCC(=O)NC2=O)c(Cl)c1)c1ncc(Cl)cn1 (stereo not shown) [Compound 194]
96

Find Dmax (NEK7 (Homo sapiens (Human), UniProt Q8TDX7+Q96SW2)) for the entry CC(C)(C(=O)NCc1cc(Cl)c(C2CCC(=O)NC2=O)c(Cl)c1)c1ccnc(F)c1 (stereo not shown) [Compound 93]
92

Find Dmax (NEK7 (Homo sapiens (Human), UniProt Q8TDX7+Q96SW2)) for the entry Cc1coc(C(C)(C)C(=O)NCc2cc(F)c(C3CCC(=O)NC3=O)c(Cl)c2)n1 (stereo not shown) [Compound 254]
55
